Record form. Attribute: max response. Fill in for each entry.
# Test system: HaCat
# Assay protocol: Cytotoxic Profiling of Annotated Libraries Using Quantitative High-Throughput Screening (AID 1296008); further: on the % scale 0 is the no-effect control and ±100 the full control effect; nearly all actives have a fitted effect of over 60% in size
# Setup conditions: Five cell lines viability, CellTiter-Glo ATP luminescence, 48-72 h; hits give low values
Inconclusive results are not listed. The source made the active and inactive calls. The call rests on the fitted dose curve; in most records, active means well fitted inhibition curve with a large enough effect; inconclusive means small, poorly fitted or top-dose-only effect; inactive means flat fitted curve, though single readings scatter.

Compound: O=C(NC(NC(=S)Nc1ccc(F)c([N+](=O)[O-])c1)C(Cl)(Cl)Cl)C(c1ccccc1)c1ccccc1 (configuration not stated)
max response: -1.87% (inactive)
--
Compound: CN(CCCNC(=O)c1ccc2nc3c(c(Cl)c2c1)CCCC3)Cc1ccccc1
max response: 1.7% (inactive)
--
Compound: COc1ccc(CNC(=O)Nc2ncc([N+](=O)[O-])s2)cc1
max response: 3.95% (inactive)
--
Compound: Oc1ccc(Nc2nc(-c3ccc(Cl)cc3)cs2)cc1
max response: -8.45% (inactive)

List max response for every entry below, keeping the order given.
1. Cn1cc(-c2cnc3ccc4ccc(CS(=O)(=O)NCc5ccccn5)cc4c(=O)c3c2)cn1
2. O=S(=O)(c1cccc2ccccc12)n1ccc2ccc(N3CCN4CCCC4C3)cc21 (configuration not stated)
3. CC(C)(C)c1ccc(-c2nc3ccccc3[nH]2)cc1

-3.23% (inactive)
4.67% (inactive)
-8.47% (inactive)

====

# Assay protocol: A2780 Cisplatin Sensitive Ovarian Cancer Cell Toxicity qHTS against the NCATS CANVASS Library (AID 1347353); further: nearly all actives have a fitted effect of over 60% in size
# Setup conditions: A2780 ovarian cancer viability, ATPLite luminescence, 72 h; series mostly up to 46.1 µM
Inconclusive results are not listed. Activity calls are given as the source filed them. Calls follow the shape of the dose curve; as a rule, active = well fitted cell-killing curve with a large enough effect; inconclusive = small, poorly fitted or top-dose-only effect; inactive = flat fitted curve, though single readings scatter.
Just give me one of these, please: active, inactive

As a guide, the following entries are already answered.
Compound: O=Cc1ccc2n1C[C@@]1(C[C@H](O)[C@@H](CO)O1)OC2
Cat: inactive
//
Compound: CN1CC[C@]2(c3cccc4c3N[C@@H]3N(C)CC[C@]43[C@@]34CCN(C)[C@@H]3Nc3ccccc34)c3ccccc3N[C@H]12
Cat: active
//
Compound: CS/C=C/C(N)=O
Cat: inactive

Called result for C=C1C[C@@]23C=CC(=O)[C@@](C)(CCC(=O)Nc4c(O)ccc(C(=O)O)c4O)C2C[C@@H]1CC3O (some centres not stated)
inactive

Give the logged outcome of this assay for the following compound: C=C1C(=O)O[C@H]2[C@H]1CC/C(CO)=C\CC[C@@]1(C)O[C@@H]21
active

Just curious, what result did C[C@@H]1C(=O)[C@]23CC[C@H]1C[C@]21O[C@H]2C(C)(C)C=CC(=O)[C@@]23COC1=O get here?
inactive

Tell me the recorded outcome of this test for O=C1CC(c2cc(O)cc(O)c2)Oc2cc(O)ccc21 (configuration not stated) .
active

Please state the recorded outcome for this compound: C=C(C)[C@@H]1CC[C@]2(C)CC[C@]3(C)[C@H](CC[C@@H]4[C@@]5(C)CC[C@H](O)C(C)(C)[C@@H]5CC[C@]43C)[C@@H]12
inactive

Per the assay record, what outcome was assigned to C[C@@H](O)[C@H]1OC(=O)C=C2[C@]3(C)[C@H]4[C@H](OC(=O)[C@@]4(C)[C@@H](O)[C@H]4O[C@H]43)[C@H]3O[C@@]231 ?
active

Could you please tell me the result logged for C/C(=C\[C@H](C)C(=O)CCCC1CC(=O)NC(=O)C1)[C@@H]1OC(=O)/C=C/CC/C=C/C[C@@H](O)[C@@H]1C in this assay?
active

Could you kindly confirm the outcome this assay logged for O=C(O)CC1OC(=O)c2c(O)cccc21 (configuration not stated) ?
inactive

Any idea what this test logged for C/C1=C/[C@@H](C)[C@H](O)C/C=C/CC/C=C/C(=O)O[C@@H]1[C@H](C)C(=O)/C=C/CC1CC(=O)NC(=O)C1 ?
active

What was the test verdict on C=CC(=C)CC[C@]1(C)[C@H]2C[C@H](OC(=O)C(C)CC)C=C3[C@H](OC(C)=O)O[C@H](OC(C)=O)[C@@]32[C@H](OC)C[C@@H]1C (some centres not stated) ?
active

Record request — test call for O=C(OC1Cc2c(O)cc(O)cc2OC1c1cc(O)c(O)c(O)c1)c1cc(O)c(O)c(O)c1 (configuration not stated)
inactive

Per the records of this test, what outcome belongs to O=c1cc(-c2ccc(O)cc2)oc2c([C@@H]3OC(CO)[C@H](O)[C@@H](O)[C@H]3O)c(O)cc(O)c12 (some centres not stated) ?
inactive

Please indicate how the test categorized O=C(O)[C@@]12CO[C@@]3(O)C4CCN(CC[C@H]31)[C@H]4c1c2[nH]c2ccccc12 .
inactive

Per the records of this test, what outcome belongs to C1=C2CCCN[C@@H]2[C@@H]2CCN3CCCC[C@@H]3[C@H](C1)C2 ?
inactive

====

# Assay protocol: qHTS for differential inhibitors of proliferation of Plasmodium falciparum line HB3 (AID 1886);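 further: parasites grown with compound for 72 h before SYBR Green readout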
# Setup conditions: Plasmodium falciparum HB3 proliferation inhibition; series mostly up to 28.7 µM
Records with an inconclusive call do not appear. Calls of active or inactive are those of the source. The call rests on the fitted dose curve; in most records, active means well fitted curve in the direction sought with a large enough effect; inconclusive means small, poorly fitted or top-dose-only effect, or another doubt; inactive means no such curve, though single readings can be large or run the other way.
Hello, when you answer, please use one of the following outcomes: YES for active, NO for inactive

Check out these entries, answers already filled in.
Molecule: O=C(O)c1cc(=O)c2ccc(Cl)cc2[nH]1
Cat: NO

Molecule: Cc1cccc(C)c1NC(=O)C[N+](C)(C)C
Cat: NO

Molecule: Cc1ccc(OCC(O)C(C)NC(C)C)c2c1CCC2 (stereo not given)
Cat: YES

Molecule: CN(C)CCCCSC(=N)N
Cat: NO

Molecule: CCCn1c(=O)c2[nH]c(-c3ccc(OCC(=O)Nc4ccc(C#N)cc4)cc3)nc2n(CCC)c1=O
Cat: NO

Molecule: FC(F)(F)c1cc(CO[C@H]2CCCN[C@H]2c2ccccc2)cc(C(F)(F)F)c1
Cat: YES

Molecule: C/C=C1\C(=O)CC2C3CCC4=CC(=O)CC[C@]4(C)C3CC[C@]12C (stereo not given in full)
Cat: YES

Molecule: O=C(OCCN1CCCCC1)c1c[nH]c2ccccc12
Cat: NO

Molecule: O=C(Nc1cc(C(=O)Nc2ccc(S(=O)(=O)O)cc2S(=O)(=O)O)cc(C(=O)Nc2ccc(S(=O)(=O)O)cc2S(=O)(=O)O)c1)Nc1cc(C(=O)Nc2ccc(S(=O)(=O)O)cc2S(=O)(=O)O)cc(C(=O)Nc2ccc(S(=O)(=O)O)cc2S(=O)(=O)O)c1
Cat: NO

Attention now turns to another entry.
Query: recorded result category for COc1ccccc1NC(=O)Nc1nc(-c2cccnc2)nc2ccccc12 in this test
NO

====

# Assay protocol: Confirmatory qHTS for small molecule stabilizers of the endoplasmic reticulum resident proteome: Secreted ER Calcium Modulated Protein (SERCaMP) assay (AID 1508628); further: nearly all actives have a fitted effect of over 40% in size
# Setup conditions: SERCaMP secreted luciferase ER calcium/proteostasis reporter; series mostly up to 76.3 µM
Records with an inconclusive call do not appear. Calls of active or inactive are those of the source. Calls follow the shape of the dose curve; as a rule, active = well fitted inhibition curve with a large enough effect; inconclusive = small, poorly fitted or top-dose-only effect; inactive = no such curve, though single readings can be large or run the other way.
Could you please pick one outcome from this set? True (active), False (inactive)

Check out these entries, answers already filled in.
Compound: CNc1cc2c(Nc3cccc(Br)c3)ncnc2cn1
Cat: True

Compound: N[C@@H](CCS(=O)O)C(=O)O
Cat: False

Compound: COc1ccc(Cl)cc1N=Nc1ncc[nH]1
Cat: True

Compound: CCCCCCCCCCCCCCCC(=O)OC(CO)CO
Cat: False

Compound: N=C(CC(O)COc1ccccc1-c1ccccc1)N1CCCCC1 (stereo not given)
Cat: False

Compound: COc1ccc(NS(=O)(=O)c2ccc(I)cc2)cc1N1CCN(C)CC1
Cat: True

Compound: NC(=NC1C2CC3CC(C2)CC1C3)Nc1ccc(I)cc1 (stereo not given)
Cat: False

Compound: CN1C[C@H](C(=O)N[C@]2(C)O[C@@]3(O)[C@H]4CCCN4C(=O)[C@H](Cc4ccccc4)N3C2=O)C[C@H]2c3cccc4[nH]cc(c34)C[C@@H]21
Cat: True

Compound: CCOC(=O)NC[C@H](Cc1ccc(OCCc2nc(-c3ccccc3)oc2C)cc1)N/C(C)=C\C(=O)c1ccc(C(F)(F)F)cc1
Cat: True

For CS(=O)(=O)CCNCc1nc(-c2ccc3ncnc(Nc4ccc(OCc5cccc(F)c5)c(Cl)c4)c3c2)cs1 , what call appears in the results of this test?
False

====

# Assay protocol: qHTS drug screen for cell cycle checkpoint inhibitors in PARPi-resistant BRCA-mutant ovarian cancer cell lines. (AID 1963452)
# Setup conditions: PEO1/OlaR viability, CellTiter-Glo luminescence, 96 h; hits give low values
Task for the reader: assign each of the following molecules its reported Z-AUC.
One number for each entry.

Recorded results for 5 molecules are shown here.
Molecule: CC1(C)CC[C@]2(C(=O)O)CC[C@]3(C)C(=CC[C@@H]4[C@@]5(C)C[C@@H](O)[C@H](O)C(C)(C)[C@@H]5CC[C@]43C)[C@@H]2C1
Z-AUC: 1.45

Molecule: CCc1ccc(/C=C2/SC(=S)NC2=O)cc1
Z-AUC: 0.0868

Molecule: COc1cc2ncnc(Oc3cccc(NC(=O)Nc4cc(C(C)(C)C(F)(F)F)on4)c3)c2cc1OC
Z-AUC: 0.198

Molecule: CN[C@@H]1C[C@H]2O[C@@](C)([C@@H]1OC)n1c3ccccc3c3c4c(c5c6ccccc6n2c5c31)C(=O)N[C@H]4O
Z-AUC: -0.878

Molecule: CC(=O)C1CCC2C3CCC4=CC(=O)CCC4(C)C3CCC12C (stereo not drawn)
Z-AUC: -0.653

// batch mode: one Z-AUC value per listed entry
1. COc1cc([C@@H](CC(=O)O)c2ccc(C)c(CN3C[C@@H](C)Oc4ccccc4S3(=O)=O)c2)cc2nnn(C)c12
2. O=S(=O)(NCCNC/C=C/c1ccc(Br)cc1)c1cccc2cnccc12
3. N#C[C@@H]1C[C@@H]2C[C@@H]2N1C(=O)[C@@H](N)C12CC3CC(CC(O)(C3)C1)C2

1.24
0.684
-0.557
